Entry source: PubChem BioAssay AID624136

- Test system: mutant tumor protein p53 (GST-tagged), Homo sapiens
- METHOD NOTES: binders of human mutant p53, primary screen, biochemical, small molecule microarray, anti-GST fluorescence (AID 624136)
- CONDITION DESCRIPTION: small molecule microarray binding
Screen size: about 17,000 compounds; about 75 (0.4%) were called active.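 Rule for the calls: active = compounds whose four printed spots each glow above background more than chance allows, each with a p-value under 7%; inactive = the rest.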 What follows is part of a selection rich in actives, with near analogues and random picks from the rest.
Pick one and only one: True for active, False for inactive

As a guide, the following entries are already answered.
{"columns": ["MOLECULE SMILES", "EXPERIMENTAL SYSTEM", "CLASS LABEL"],
 "data": [
  ["C[C@H](CO)N1C[C@H](C)[C@@H](CN(C)C(=O)Nc2ccccc2)Oc2ccc(NC(=O)C3CC3)cc2CC1=O", "mutant tumor protein p53 (GST-tagged), Homo sapiens", "False"],
  ["C[C@@H]1CN([C@@H](C)CO)C(=O)c2cc(NC(=O)Nc3ccc4c(c3)OCO4)ccc2O[C@@H](C)CCCCO[C@@H]1CN(C)Cc1ccccc1", "mutant tumor protein p53 (GST-tagged), Homo sapiens", "True"]
]}

Please state the recorded outcome for this molecule: "C[C@@H]1CCCCO[C@H](CN(C)C(=O)c2ccccc2)[C@H](C)CN([C@@H](C)CO)C(=O)c2cc(NC(=O)Nc3ccc4c(c3)OCO4)ccc2O1" False

Please state the recorded outcome for this molecule: "C[C@@H]1CCCCO[C@H](CN(C)Cc2ccncc2)[C@H](C)CN([C@H](C)CO)C(=O)c2cc(NC(=O)Nc3ccccc3)ccc2O1" False

Please state the recorded outcome for this molecule: "C[C@@H]1CN([C@H](C)CO)C(=O)Cc2cc(NC(=O)C3CC3)ccc2O[C@H]1CN(C)Cc1ccc(Cl)c(Cl)c1" True
